- subjectOfTest: full-length SARM1 (FL-SARM1) (Homo sapiens)
- Sequence (Q6SZW1 28-724): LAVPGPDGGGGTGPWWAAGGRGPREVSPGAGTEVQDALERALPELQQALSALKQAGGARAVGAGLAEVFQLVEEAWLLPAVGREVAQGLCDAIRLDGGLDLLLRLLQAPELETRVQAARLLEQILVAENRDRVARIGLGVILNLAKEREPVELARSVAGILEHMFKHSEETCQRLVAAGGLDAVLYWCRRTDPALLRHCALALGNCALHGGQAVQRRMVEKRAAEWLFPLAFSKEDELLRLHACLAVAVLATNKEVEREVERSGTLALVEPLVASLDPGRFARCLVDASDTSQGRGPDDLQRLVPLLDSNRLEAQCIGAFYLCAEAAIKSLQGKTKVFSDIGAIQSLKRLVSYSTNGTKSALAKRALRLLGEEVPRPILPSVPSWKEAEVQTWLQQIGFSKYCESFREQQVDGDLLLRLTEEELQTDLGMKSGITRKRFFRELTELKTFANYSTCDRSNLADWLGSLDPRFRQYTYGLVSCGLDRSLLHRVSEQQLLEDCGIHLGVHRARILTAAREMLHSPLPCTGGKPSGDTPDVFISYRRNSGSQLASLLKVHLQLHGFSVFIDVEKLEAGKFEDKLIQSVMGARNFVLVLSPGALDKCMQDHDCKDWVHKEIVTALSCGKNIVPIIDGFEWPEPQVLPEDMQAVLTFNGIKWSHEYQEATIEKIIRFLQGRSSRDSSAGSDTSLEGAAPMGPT
- methodNotes: FL-SARM1 cellular lysate assay (NAD/NADH-Glo readout of remaining NAD+)
- conditionDescription: Activity, SARM1 cellular lysate from transfected HEK293T cells, NAD+ and NMN, 11 point curve
pIC50: −log10 of the molar value.
Give pIC50 for every item shown.

Per the record, COc1ccc(-c2cc(NC(=O)N3[C@@H]4C[C@@H](C)C[C@H]3C4)c(F)cc2Cl)cn1 [Example 131] has pIC50 of 6.00 to 10.00

Per the record, CCc1ccc(NC(=O)N2[C@@H]3C[C@H](C)C[C@H]2C3)cc1-c1cncc(F)c1 [Example 76] has pIC50 of 6.00 to 10.00

Per the record, COc1c(F)cncc1-c1cc(NC(=O)N2C3CCCC2C3)ccc1C [Example 90] has pIC50 of 5.00 to 6.00

Per the record, CO[C@@H]1CC[C@H]2CC1N2C(=O)Nc1ccc(C)c(-c2cncc(F)c2)c1 [Example 7] has pIC50 of 5.00 to 6.00

Per the record, Cc1ccc(NC(=O)[C@H]2C[C@H](C3CC3(F)F)C2)cc1-c1cccnc1 (some centres unmarked) [Example 99] has pIC50 of 5.00 to 6.00

Per the record, Cc1ccc(NC(=O)N2C[C@@H]3C[C@H]2C[C@H]3OC(F)F)cc1-c1cncc(F)c1 (racemic) [Example 31] has pIC50 of < 5.00

Per the record, Cc1nnc([C@]23C[C@H](C)C[C@H](C2)N3C(=O)Nc2cc(-c3cncc(F)c3)c(Cl)cc2F)o1 (single isomer, unassigned) [Example 132] has pIC50 of 6.00 to 10.00

Per the record, Cc1ccc(NC(=O)N2C3CCCC2C3)cc1-c1cncc(F)c1C [Example 92] has pIC50 of 6.00 to 10.00
